Value source: PubChem BioAssay (NCI)

- Tested on: SN12C renal
- assay_overview: NCI tumour cell line growth inhibition, 48 h
measurement_name: TGI

q: Would you mind telling me what TGI value was observed for CCOC(=O)c1ccc2c(c1)nc1n2C(c2c(F)cccc2F)SC1 (stereo not drawn) ?
a: > 100 µM

q: Note, next up: O=C(O)C(Cc1ccc(O)cn1)NC(=O)C(F)(F)F (stereo not drawn)
a: > 100 µM

q: Same thing, different compound: `CCOC(=O)c1sc2nc(SC)nc(Nc3ccc4c(c3)OCCCO4)c2c1N`
a: > 100 µM

----------
- System: HT29 colon
- assay_overview: NCI tumour cell line growth inhibition, 48 h
Would you mind telling me the reported TGI of each entry?

q: Given `O=C(NO)c1cccc(OCc2ccc(Br)cc2)c1` , state its recorded TGI.
a: 35.8 µM

q: One more compound: NCC(=O)C(O)C(O)C(O)CO (stereo not given)
a: > 100 µM

q: For C=C(C)C1CC=C(C(=O)O)CC1 (stereo not given) then?
a: > 5000 µM

q: Again, but for COc1ccccc1C1C2=C(COC2=O)OC(C)(C)Oc2cc3c(cc21)OCO3 (stereo not given)
a: 17.3 µM

q: What do we get for CCC1(O)CC(OC2CC(N(C)C)C(OC3CC(O)C(OC4OC(C)C(=O)C=C4N)C(C)O3)C(C)O2)c2c(O)c3c(c(O)c2C1C(=O)OC)C(=O)c1cccc(O)c1C3=O (stereo not given) ?
a: 0.215 µM

q: Same again, this time with `COC(=O)c1cc(C)ccc1/C=C1\Cc2cc(C)c(C)cc2C1=O`
a: > 100 µM

q: And then `CCOC(=O)CSc1nc(-c2ccc(OC)cc2)c(C#N)c(=O)[nH]1` , what is it?
a: > 100 µM

q: Field entry: CC1CC(N)=Nc2ccccc2N1Cc1ccccc1 (stereo not given)
a: 27.4 µM

q: What do we get for CCCCCCCCCCCCCCCCOP(=O)(O)OP(=O)(O)OCC1OC(n2ccc(N)nc2=O)CC1O (stereo not given) ?
a: > 100 µM

q: Then what about the compound `O=C1O/C(=C\c2ccc(O)c(Br)c2)C(c2ccc(O)cc2)=C1Cl` ?
a: > 100 µM

q: Field entry: CCCCCCCC1c2cc3[nH]c(cc4nc(cc5[nH]c(cc(n2)[C@@]1(C)CC(=O)N(C)C)c(C)c5CCC(=O)O)C(CCC(=O)O)=C4C)cc3C (stereo not given in full)
a: 39.8 µM

q: Can you check `O=C(O)C(=O)Cc1ccc2c(c1)OCO2` next?
a: > 100 µM

q: What would you report for `CC(=O)C1(c2ccccc2)CCN(Cn2sc3nc(C)cc(C)c3c2=O)CC1` ?
a: 36.9 µM

q: Now consider `CN1CCN(C(=O)c2ccc(NC(=O)Nc3ccc(N(C)c4ccnc(Nc5ccc(CS(C)(=O)=O)cc5)n4)cc3)cc2)CC1` .
a: > 25 µM

q: Same lookup for `C=C1C(=O)O[C@@H]2[C@H]1CC[C@H](C)[C@]1(O)CCC(=O)[C@@]21C` , please.
a: > 10 µM

q: # iterate: `CCCSc1cc(Cl)c(C)cc1S(=O)(=O)n1cc[nH]c1=O`
a: > 100 µM

q: Entry `CC[O-].CC[O-].[O-]c1ccccc1C=Nc1ccccc1.[O-]c1ccccc1C=Nc1ccccc1.[Ti+4]` please
a: > 100 µM

q: Another compound: `COc1cccc(-c2nn(-c3ccccc3)cc2-c2ccnc(NCCNS(=O)(=O)c3ccc(C(F)(F)F)cc3)c2)c1`
a: 5.75 µM

q: Further, for `C=CCNC1=C2C[C@@H](C)C[C@@H](OC)[C@H](OC(=O)CN(C)C)[C@H](C)/C=C(\C)[C@@H](OC(N)=O)[C@H](OC)/C=C\C=C(/C)C(=O)NC(=CC1=O)C2=O` ?
a: 12.7 µM

q: // next record `CC(=O)[O-].CC(=O)[O-].[Mn+2].c1ccc(/C(=N\Nc2ccccn2)c2ccccn2)cc1`
a: 11.3 µM

q: Next compound: CC1(C)SC2C(C(=O)O)N=C(Cc3ccccc3)N2C1C(=O)O (stereo not given)
a: 29 µM

q: Next compound up: c1ccc(COCC23CCN(Cc4ccccc4)C(CC(OCc4ccccc4)C2)S3)cc1 (stereo not given)
a: > 100 µM

q: Again, but for O=c1[nH]cnc2c(C3OC(CO)C(O)C3O)[nH]nc12 (stereo not given)
a: > 100 µM

q: Thanks! And COC(=O)/C=C\c1ccc2c(c1)CC1(C2)Cc2ccc(/C=C/C(=O)OC)cc2C1 (stereo not given) ?
a: > 31.6 µM

q: Request: CC1(C)CC23C(=O)N(c4ccccc4)C(=Nc4ccccc4)NC2=CC(C#N)=C(C#N)C3O1 (stereo not given)
a: > 100 µM

q: Quick one: `CC1(C)CCC(=O)c2c(O)ccc(O)c21`
a: > 100 µM

q: Request: `O=C1C(=O)c2cc([N+](=O)[O-])ccc2-c2ccccc21`
a: 3.9 µM

q: Do the same for COC(=O)c1ccccc1C1CN=NC12Cc1c(C)cc(C)cc1C2=O (stereo not given) please
a: > 100 µM

q: What do you have for `COc1cc(N2CCC(N3CCN(C)CC3)CC2)ccc1Nc1ncc(Cl)c(Nc2ccccc2P(C)(C)=O)n1` ?
a: 4.81 µM

q: Do the same for [N-]=[N+]=NC1(N=[N+]=[N-])C(=O)NN=C(c2ccccc2)C1=O (stereo not given) please
a: > 100 µM

q: Would you kindly repeat that for `CCN(Cc1ccc(F)cc1)c1ccc(CO)c(Cl)c1` ?
a: 16.1 µM

q: One more compound: `CN(C(=O)OC(C)(C)C)[C@H]1CCCC[C@H]1N1CCCC1`
a: > 100 µM

q: Next record, please: `O=C(OCc1ccccc1)N1CCNCCNCC1`
a: > 100 µM

q: Can you handle Cc1ccc(SCC(OCn2cnc3c(N)ncnc32)[C@H](C)F)cc1 (stereo not given in full) next?
a: > 100 µM

q: // same read-out, input: `CCOC(=O)[C@H](CSSc1ncnc2cc[nH]c12)NC(=O)[C@@H](C)c1ccc2cc(OC)ccc2c1`
a: > 100 µM
